These measurements were taken from patent US20040142981A1.

Item-by-item account of melting point

compound	melting point
O=C(Nc1ccc(Br)cc1-c1noc(=O)[nH]1)c1cccc(S(=O)(=O)N2CCOCC2)c1 [Example 19]	220 to 223 °C
O=C(Nc1ccc(Br)cc1-c1nnn[nH]1)c1cccc(S(=O)(=O)N2CCOCC2)c1 [Example 17]	228 to 230 °C
N#Cc1ccc(NC(=O)c2ccc(S(=O)(=O)N3CCc4cc(Cl)ccc43)cc2)c(-c2n[nH]c(=O)o2)c1 [Example 22]	262 to 264 °C

Q. Which melting point value belongs to N#Cc1ccc(NC(=O)c2cccc(S(=O)(=O)N3CCOCC3)c2)c(-c2nnn[nH]2)c1 [Example 20] ?
A. 230 to 232 °C

Q. Which melting point value belongs to N#Cc1ccc(NC(=O)c2ccc(S(=O)(=O)N3CCc4cc(Cl)ccc43)cc2)c(-c2n[nH]c(=S)o2)c1 [Example 23] ?
A. 225 to 229 °C

* * *

Test system: SAUR 9218
Assign labels as follows, please: met for MIC below 20 µg/mL; not met for MIC equal to or exceeding 20 µg/mL.

These solved cases illustrate the format of a correct answer.
compound-structure-string	assigned-class
O=C(Nc1ccc(Br)cc1-c1noc(=O)[nH]1)c1cccc(OCc2ccccc2)c1	met
O=C(Nc1ccc(Br)cc1-c1noc(=O)[nH]1)c1cccc(S(=O)(=O)N2CCOCC2)c1	not met
O=C(Nc1ccc(Br)cc1C1=Nc2ccccc2S(=O)(=O)N1)c1cccc(S(=O)(=O)N2CCc3cc(Cl)ccc32)c1	not met
O=C(Nc1ccc(Br)cc1-c1nc2ccccc2c(=O)[nH]1)c1cccc(S(=O)(=O)N2CCc3cc(Cl)ccc32)c1	met

Q. Please determine if O=C(Nc1ccc(Br)cc1-c1nc2ccccc2c(=O)[nH]1)c1cccc(S(=O)(=O)N2CCOCC2)c1 is below 20 µg/mL in terms of MIC.
A. met

Q. Please determine if CN(c1ccc(Cl)cc1)S(=O)(=O)c1coc(C(=O)Nc2ccc(Br)cc2-c2nnn[nH]2)c1 is below 20 µg/mL in terms of MIC.
A. met

* * *

This section lists MIC readings for SAUR 9218.
Just the number in µg/mL, nothing appended.

Solved entries (count: 5):
compound-structure-string	MIC [µg/mL]
CC(C)Oc1cccc(C(=O)Nc2ccc(Br)cc2-c2noc(=O)[nH]2)c1	32
CN(c1ccc(Cl)cc1)S(=O)(=O)c1ccc(C(=O)Nc2ccc(Br)cc2NS(=O)(=O)C(F)(F)F)cc1	32
O=C(Nc1ccc(Br)cc1-c1noc(=O)[nH]1)c1ccc(S(=O)(=O)N2CCc3cc(Cl)ccc32)cc1	8
N#Cc1ccc(NC(=O)c2cccc(S(=O)(=O)N3CCOCC3)c2)c(-c2nnn[nH]2)c1	64
N#Cc1ccc(NC(=O)c2ccc(S(=O)(=O)N3CCc4cc(Cl)ccc43)cc2)c(-c2n[nH]c(=O)o2)c1	32

Q. Which MIC value belongs to CN(c1ccc(Cl)cc1)S(=O)(=O)c1cccc(C(=O)Nc2ccc(Br)cc2C(=O)NS(C)(=O)=O)c1 ?
A. 2

Q. Which MIC value belongs to CN(c1ccc(Cl)cc1)S(=O)(=O)c1ccc(C(=O)Nc2ccc(Br)cc2-c2n[nH]c(=O)o2)cc1 ?
A. 2

Q. Which MIC value belongs to N#Cc1ccc(NC(=O)c2cccc(S(=O)(=O)N3CCc4cc(Cl)ccc43)c2)c(C(=O)Nc2nccs2)c1 ?
A. 8

* * *

assay-readout: melting point

Solved entries (count: 3):
compound-structure-string	melting point
N#Cc1ccc(NC(=O)c2cccc(S(=O)(=O)N3CCOCC3)c2)c(-c2n[nH]c(=O)o2)c1	283 to 285 °C
CC(C)(C)C(=O)OCn1nnc(-c2cc(Br)ccc2NC(=O)c2cccc(S(=O)(=O)N3CCOCC3)c2)n1	210 to 212 °C
O=C(Nc1ccc(Br)cc1-c1noc(=O)[nH]1)c1cccc(Oc2ccccc2)c1	185 to 187 °C

Continue with the compound presented below.
Q. Which melting point value belongs to N#Cc1ccc(NC(=O)c2cc3cccc(S(=O)(=O)c4ccccc4)c3[nH]2)c(-c2nnn[nH]2)c1 ?
A. 293 to 295 °C

* * *

Item-by-item account of MIC
Test system: SAUR 9218
Just the number in µg/mL, nothing appended.

Solved entries (count: 5):
compound	output-unit	recorded-number
O=C(Nc1ccc(Br)cc1-c1nnn[nH]1)c1cccc(S(=O)(=O)N2CCOCC2)c1 [Example 17]	µg/mL	64
O=C(Nc1ccc(Br)cc1-c1nnn[nH]1)c1ccc(S(=O)(=O)N2CCc3ccccc32)cc1	µg/mL	2
O=C(Nc1ccc(Br)cc1-c1noc(=O)[nH]1)c1cccc(SCc2ccccc2)c1 [Example 2]	µg/mL	8
O=C(Nc1ccc(Br)cc1-c1noc(=O)[nH]1)c1cccc(Oc2ccccc2)c1 [Example 16]	µg/mL	16
Cc1ccc(S(=O)(=O)NC(=O)c2cc(Br)ccc2NC(=O)c2cccc(S(=O)(=O)N(C)c3ccc(Cl)cc3)c2)cc1 [Example 4]	µg/mL	8

Continue with the compound presented below.
Q. Request body: readout MIC, system SAUR 9218, query CN(c1ccc(Cl)cc1)S(=O)(=O)c1ccc(C(=O)Nc2ccc(Br)cc2-c2noc(=S)[nH]2)cc1 . Return the value.
A. 16
